target: the molecule itself; experiment: SEC + cross-linking; 250 uL of 2 mg/mL protein on Superose 6 Increase 10/300 GL in 5 mM HEPES pH 8.0, 0.5 mM EGTA, 2 mM DTT; samples from each peak cross-linked with 0.024% glutaraldehyde at 30 °C for 60 min, SDS-PAGE in 12.5% gel
value kind: stoichiometry N
One number for each entry.

Inquiry: Reported stoichiometry N, protein NFL_(1A+1B) (neurofilament light chain protein, coils 1A and 1B, Ser80-Ile243) (domain or fragment, human, UniProt P07196 80-243, looked up, neurofilament light chain protein (NFL), human, product of the NEFL gene, UniProt P07196, coils 1A and 1B, residues Ser80-Ile243; The monomer mass used for DSC is 19.2 kDa; also called coil 1; source: E. coli C41, purified from the fraction of soluble proteins (HisTrap HP, imidazole gradient)) SNDLKSIRTQEKAQLQDLNDRFASFIERVHELEQQNKVLEAELLVLRQKHSEPSRFRALYEQEIRDLRLAAEDATNEKQALQGEREGLEETLRNLQARYEEEVLSREDAEGRLMEARKGADEAALARAELEKRIDSLMDEISFLKKVHEEEIAELQAQIQYAQI : ____
Reply text: 2

Recorded values, source paper PMC10813002.
